# Test system: HCT-8 host cells (Hs18S)
# settings: primary screening at 10 uM, treated vs control
# Hs18S ΔCT annotations
Just the number, please, no unit after it.

Look over these answered cases.
1) CC12CCC(CC1=O)C2(C)C [CAMPHOR (1R)] :: -0.22
2) C[N+](C)(C)CC(O)CC(=O)O.[Cl-] (stereo not drawn) [CARNITINE (dl) HYDROCHLORIDE] :: -0.79
3) O.O=C(O)[C@@H]1[C@H]2C[C@H]3c4[nH]c5ccccc5c4CCN3C[C@@H]2CC[C@@H]1O [YOHIMBIC ACID HYDRATE] :: -0.27
4) COc1cc2c(c(OC)c1OC)-c1ccc(=O)c(O)cc1[C@@H](NC(C)=O)CC2 [COLCHICEINE] :: -0.43
5) CN(C)Cc1c[nH]c2ccccc12 [GRAMINE] :: -0.42
6) O=c1c(O)c(-c2ccc(O)c(O)c2)oc2c(O)c(O)cc(O)c12 [GOSSYPETIN] :: -0.04
7) COc1ccc(/C=C/c2cc(O)cc(O)c2)cc1 [RESVERATROL 4'-METHYL ETHER] :: -0.37

Next up:
Asked: Need Hs18S ΔCT, item C[C@]12CC[C@H]3[C@@H](CC[C@]4(O)C[C@@H](O)CC[C@]34C=O)[C@@]1(O)CC[C@@H]2C1=CC(=O)OC1 [STROPHANTHIDIN]
Given back: 11.98

----------
# Test system: HCT-8 host cells (Hs18S)
# settings: primary screening at 10 uM, from Hs18S ΔCT
# Cytotoxicity (%) annotations
# unit: % | format: bare number

Look over these answered cases.
1) COc1cc([C@@H]2c3cc4c(cc3[C@H](OC(C)=O)[C@H]3COC(=O)[C@@H]23)OCO4)cc(OC)c1OC [PICROPODOPHYLLIN ACETATE] :: 50.6
2) COc1ccc(-c2coc3c4c(c(CC=C(C)C)c(O)c3c2=O)OC(C)(C)C=C4)cc1OC [POMIFERIN DIMETHYL ETHER] :: 6.1
3) COc1ccc(/C=C/c2cc(O)cc(O[C@@H]3O[C@H](CO)[C@@H](O)[C@H](O)[C@H]3O)c2)cc1 [PICEID METHYL ETHER] :: 30.3
4) CC1(C)[C@@H](O[C@H]2O[C@H](C(=O)O)[C@@H](O)[C@H](O)[C@H]2O[C@@H]2O[C@H](C(=O)O)[C@@H](O)[C@H](O)[C@H]2O)CC[C@]2(C)[C@H]3C(=O)C=C4[C@@H]5C[C@@](C)(C(=O)O)CC[C@]5(C)CC[C@@]4(C)[C@]3(C)CC[C@@H]12.N [GLYCYRRHIZIC ACID, AMMONIUM SALT] :: -43.6
5) COc1cc(O)c(C(=O)/C=C/c2ccc(OC)c(O)c2)c(OC)c1 :: -22.2

Next up:
Asked: Need Cytotoxicity (%), item CC1(C)C=Cc2c(c3c(c4c(=O)c(-c5ccc(O)cc5)coc24)OC(C)(C)CC3)O1 [ISOOSAJIN]
Given back: -18.5

----------
# Test system: Cryptosporidium parvum
# assay protocol: qRT-PCR assay of the growth of C. parvum in vitro in HCT-8 host cells (primary and secondary screening, EC50)
# Format: cell-based
# settings: primary screening at 10 uM
We label by threshold. Values of Inhibition (%) strictly beneath -20% are MET. Values of -20% and up are NOT MET.

Example results:
1. COc1cc2occ(-c3ccc(OC)c(OC)c3OC)c(=O)c2cc1OC :: NOT MET
2. CC(C)CCC[C@@H](C)[C@H]1CC[C@H]2[C@@H]3CC[C@H]4CCCC[C@]4(C)[C@H]3CC[C@]12C :: NOT MET
3. CC(=O)[C@@]1(O)CC[C@H]2[C@@H]3CCC4=CC(=O)CC[C@]4(C)[C@H]3CC[C@@]21C [HYDROXYPROGESTERONE] :: MET

Asked: Please state whether Inhibition (%) is below -20% for COc1cc2oc3cc(OC)c(OC)c(CC=C(C)C)c3c(=O)c2c(O)c1CC=C(C)C
Given back: NOT MET

Asked: Please state whether Inhibition (%) is below -20% for C/C1=C\CC/C(C)=C/CC(C)(C)/C=C/C1
Given back: MET

Asked: Please state whether Inhibition (%) is below -20% for CC(=O)O.Cc1cc2c(C(C)C)c(O)c(O)c(C=O)c2c(O)c1-c1c(C)cc2c(C(C)C)c(O)c(O)c(C=O)c2c1O
Given back: MET

Asked: Please state whether Inhibition (%) is below -20% for CC1(C)C=Cc2c(c3c(c4c(=O)c(-c5ccc(O)cc5)coc24)OC(C)(C)CC3)O1
Given back: NOT MET

Asked: Please state whether Inhibition (%) is below -20% for O=C[C@H](O)[C@H](O)CO
Given back: NOT MET
